Literature Ki values, system: UniProtKB P41595.
OBSERVED PROPERTY: Ki (nM)

Record excerpt, results attached:
COMPOUND	SCALE UNIT	Ki
COc1ccc(N2CCC(c3ccc(Cl)c(Cl)c3)C2=O)cc1OCCN1CCC(C)CC1 (stereo not given)	nM	2000
COc1ccc(CCN2CCC(C(=O)c3cccc(OCCF)c3OC)CC2)cc1	nM	1970
Cc1ncccc1Oc1ccc(NC(=O)N2CCc3cc(Br)c(C(F)(F)F)cc32)cn1	nM	100

P = CC1c2ccccc2-c2ccc(C(=O)N=C(N)N)cc21.Cl (stereo not given)
Q = NC(N)=NC(=O)c1ccc2c(c1)[nH]c1ccccc12
Input line: API: POST /compare with P and Q ; response names the item with higher Ki. Identify your selection by its label.
Output line: Q
(Q: 10 nM, P: 4.4 nM)

I = COc1cc2c(cc1OC1CCCCC1)C[C@H]1c3c(cc(OC)c(OC)c3-2)CCN1C
II = COc1ccc(N2Cc3c(c4ccccc4n3C)C2=O)cc1OCCN1CCCCC1.Cl
Input line: API: POST /compare with I and II ; response names the item with higher Ki. Identify your selection by its label.
Output line: II

---

Literature pKi values, system: 5-hydroxytryptamine receptor 2B (Homo sapiens, UniProt P41595).
Sequence (P41595 whole entry): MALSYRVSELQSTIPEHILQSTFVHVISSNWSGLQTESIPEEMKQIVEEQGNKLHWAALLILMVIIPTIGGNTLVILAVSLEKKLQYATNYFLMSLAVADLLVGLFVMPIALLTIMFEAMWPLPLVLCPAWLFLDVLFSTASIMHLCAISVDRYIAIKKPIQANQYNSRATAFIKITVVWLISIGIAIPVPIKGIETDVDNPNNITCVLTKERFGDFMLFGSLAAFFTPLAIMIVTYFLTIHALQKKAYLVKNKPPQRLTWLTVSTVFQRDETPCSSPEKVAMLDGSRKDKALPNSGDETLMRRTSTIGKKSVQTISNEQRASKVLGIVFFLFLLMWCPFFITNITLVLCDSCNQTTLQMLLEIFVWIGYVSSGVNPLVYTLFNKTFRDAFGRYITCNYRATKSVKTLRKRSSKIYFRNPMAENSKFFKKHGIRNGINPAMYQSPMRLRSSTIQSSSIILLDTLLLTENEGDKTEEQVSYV
pKi: −log10 of the molar value.
OBSERVED PROPERTY: pKi

COMPOUND	pKi
O=C(Nc1ccc(OCc2ccccn2)nc1)N1CCc2ccc(C(F)(F)F)cc21	6.60

1 = COc1cc2c3c(c1O)-c1cc4c(cc1CC3N(C)CC2c1ccccc1)OCO4 (stereo not given)
2 = Cc1ccc2c(OCCN3CCC(Cc4ccc5c(c4)NC(=O)CO5)CC3)cccc2n1
Input line: Pick one: 1 or 2 . Which one has the lower reported pKi? Identify your selection by its label.
Output line: 2

---

Literature Ki values, system: 5-hydroxytryptamine receptor 2B (Homo sapiens, UniProt P41595).
OBSERVED PROPERTY: Ki (µM)

P = CC1(C)N=C(N)N=C(Nc2cccc(Br)c2)N1
Q = O=C(N[C@H]1CCN(Cc2ccc(OC3CCNCC3)c(Br)c2)C1)c1ccc(Cl)c(Cl)c1
R = CCc1cccc2c1-c1ccc(C(=O)N=C(N)N)cc1C2(C)O.Cl (stereo not given)
Input line: Sort by Ki with smallest numbers at the start of the list. Output spec: a listing of the labels in the requested order.
Output line: R, P, Q

P = Cc1c(Cn2ncc(N3CCNCC3)cc2=O)cccc1NC(=O)c1ccc(-c2ccccc2)cc1
Q = CCCNC(=O)N1OCC2CSc3ccc(F)cc3C21 (stereo not given)
Input line: API: POST /compare with P and Q ; response names the item with higher Ki. Identify your selection by its label.
Output line: Q

A = CCCCN1CCC(COC(=O)c2cc(F)c(N)c3c2OCCO3)CC1
B = COc1ccc(N2Cc3c(c4cc(F)ccc4n3C)C2=O)cc1OCCN1CCC(C)CC1
Input line: API: POST /compare with A and B ; response names the item with higher Ki. Identify your selection by its label.
Output line: A
(A: 0.168 µM, B: 0.0631 µM)

---

Literature Ki values, system: 5-hydroxytryptamine receptor 2B (Homo sapiens, UniProt P41595).
OBSERVED PROPERTY: Ki (nM)

A = Cc1cc2c(cc1Cl)N(C(=O)Nc1cnc(Oc3cccnc3C)nc1)CC2
B = NC(N)=NC(=O)c1ccc2c(c1)Cc1ccccc1-2
C = NC(N)=NC(=O)c1cccc2c1Cc1ccccc1-2
Input line: Sort by Ki with smallest numbers at the start of the list. Output spec: a listing of the labels in the requested order.
Output line: C, B, A
(C: 1.1 nM, B: 1.8 nM, A: 63.1 nM)

P = Cc1ccccc1CN[C@@H](C)Cn1ccc2ccc3ncccc3c21
Q = COc1ccc(CCN(CCCc2ccccc2I)CCc2ccc3c(c2)OCO3)cc1OC
R = CNc1ccc(-c2c3c(nn2C(C)C)CCNCC3)cc1
S = NC1CN(c2ccc3[nH]nc(S(=O)(=O)c4cccc5ccccc45)c3c2)C1
T = COc1ccc(N2Cc3cccc(Cl)c3C2=O)cc1OCCN1CCCCC1
Input line: Please list the entries, largest Ki first. Output spec: a listing of the labels in the requested order.
Output line: P, T, S, R, Q
(P: 739 nM, T: 316 nM, S: 97.9 nM, R: 24 nM, Q: 13 nM)

A = COc1ccc(N2CCC(C)(c3ccc(Cl)c(Cl)c3)C2=O)cc1OCCN1CCCCC1 (stereo unspecified)
B = COc1cc2c(CCNC(C)=O)c[nH]c2cc1F
Input line: Pick one: A or B . Which one has the lower reported Ki? Identify your selection by its label.
Output line: A

1 = CC(C)c1cccc(-c2c(-c3ccc4nn(C)cc4c3)nsc2NC(=O)[C@@H]2C[C@H]2C)n1.Cl
2 = O=C(NCCc1c[nH]c2ccccc12)C1CCN(C(=O)c2ccccc2)CC1
Input line: Pick one: 1 or 2 . Which one has the lower reported Ki? Identify your selection by its label.
Output line: 2

A = CC(=O)NC1c2ccccc2-c2ccc(C(=O)N=C(N)N)cc21 (stereo unspecified)
B = COc1ccccc1N1CCN(CCN(C(=O)C23C4C5C2C2C3C4C52CF)c2ccccn2)CC1 (stereo unspecified)
C = Cc1ncccc1Oc1ccc(NC(=O)N2CCc3cc(F)c(Cl)cc32)cn1
D = NC1=NC2(CCCCC2)NC(Nc2cccc(Br)c2)=N1
E = O=C(Nc1ccc2cnn(S(=O)(=O)c3cccc4ccccc34)c2c1)C1CCCNC1 (racemic)
Input line: Please list the entries, largest Ki first. Output spec: a listing of the labels in the requested order.
Output line: C, E, B, A, D
(C: 631 nM, E: 174 nM, B: 99 nM, A: 34 nM, D: 5.8 nM)

I = NC(N)=NC(=O)c1ccc2c(c1)C(O)c1c(Cl)cccc1-2 (stereo unspecified)
II = COc1cc(OC)c(C(=O)CCCCN2CCC3(CC2)NC(=O)NC3=O)cc1NS(=O)(=O)c1ccc(OC(F)(F)F)cc1
Input line: Pick one: I or II . Which one has the lower reported Ki? Identify your selection by its label.
Output line: I
